Measured On: Recombinant human TDO comprising amino acids 19-407 (Homo sapiens, UniProt P48775)
Construct: Recombinant human TDO comprising amino acids 19-407 with a N-terminal hexahistidine tag; hexahistidine (His6) (N); made in house; host or cells: E. coli
Sequence (P48775 19-406 limits assumed): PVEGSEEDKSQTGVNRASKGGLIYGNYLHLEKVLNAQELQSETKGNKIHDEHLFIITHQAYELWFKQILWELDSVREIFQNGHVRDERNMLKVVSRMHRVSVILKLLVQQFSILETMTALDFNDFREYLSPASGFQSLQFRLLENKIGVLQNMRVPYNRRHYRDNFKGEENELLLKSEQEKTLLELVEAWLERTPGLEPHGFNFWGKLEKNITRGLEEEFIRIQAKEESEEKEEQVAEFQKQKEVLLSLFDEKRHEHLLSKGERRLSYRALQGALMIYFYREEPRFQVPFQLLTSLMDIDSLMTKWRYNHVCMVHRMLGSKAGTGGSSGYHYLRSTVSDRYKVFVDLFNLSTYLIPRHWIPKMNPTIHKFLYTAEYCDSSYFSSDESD
Protocol Details: TDO2 enzymatic assay (NFK quantified by LCMS)
Format: biochemical
Reported Conditions: 15 nM enzyme, 200 μM L-tryptophan, pH7, 30 minutes pre-incubation at RT; mean values when measured multiple times; read-out: hTDO activity (IC50 in nM)
Metric Name: IC50

Cc1ccccc1-n1cc(C(O)c2c(C3CC3)sc3cncn23)nn1 (racemic) : > 10200 nM

Q. Checklist item: IC50 tested on Recombinant human TDO comprising amino acids 19-407 (Homo sapiens, UniProt P48775), entry CCOc1ccc(-n2cc(C(O)c3c(CC)sc4cncn34)nn2)cn1 (racemic) , value?
A. > 10200 nM

Q. Same thing, different compound: OC(c1cn(-c2cccc3[nH]ccc23)nn1)c1c(C2CC2)sc2cncn12 (racemic)
A. > 10200 nM

Q. Same thing, different compound: CC(=O)Nc1ccc(-n2cc(C(O)c3c(C4CC4)sc4cncn34)nn2)cc1 (racemic)
A. > 10200 nM

Q. Further, for CC(C)(C)OC(=O)Nc1ccc(-n2cc(C(O)c3c(C4CC4)sc4cncn34)nn2)c(F)c1 (racemic) ?
A. > 10200 nM

Q. Same question for CCc1c(C(O)c2c(C3CC3)sc3cncn23)nnn1-c1ccc(OC)cc1 (racemic) please.
A. > 10200 nM
